log10(IC50) values by entry
Tested on: MDA-MB-231
Assay: MTT cytotoxicity assay, MDA-MB-231
Type: cell-based
Conditions: Homo sapiens, 24 h treatment, mean ± SD of triplicate
Note the log scale: values are log10 of IC50 expressed in µM.

CCOc1ccc(/C=C/C(=O)c2ccccc2)cc1 1.66
O=C(/C=C/c1cccc(OCc2ccccc2)c1)c1ccccc1 1.73
COc1ccc(C(=O)/C=C/c2ccc(OCc3ccccc3)c(OC)c2)cc1 1.01
COc1ccc(C(=O)/C=C/c2ccccc2)cc1 1.66
COc1ccc(C(=O)/C=C/c2ccc(OCc3ccccc3)cc2)cc1 1.92

Sample COc1cccc(C(=O)/C=C/c2ccc(OCc3ccccc3)cc2)c1 , system: MDA-MB-231. Its log10(IC50) is 1.13

Sample COc1ccccc1/C=C/C(=O)c1ccccc1 , system: MDA-MB-231. Its log10(IC50) is 1.56

---

Molecular target: HER2 (Homo sapiens, UniProt P04626)
Sequence (P04626 23-1255): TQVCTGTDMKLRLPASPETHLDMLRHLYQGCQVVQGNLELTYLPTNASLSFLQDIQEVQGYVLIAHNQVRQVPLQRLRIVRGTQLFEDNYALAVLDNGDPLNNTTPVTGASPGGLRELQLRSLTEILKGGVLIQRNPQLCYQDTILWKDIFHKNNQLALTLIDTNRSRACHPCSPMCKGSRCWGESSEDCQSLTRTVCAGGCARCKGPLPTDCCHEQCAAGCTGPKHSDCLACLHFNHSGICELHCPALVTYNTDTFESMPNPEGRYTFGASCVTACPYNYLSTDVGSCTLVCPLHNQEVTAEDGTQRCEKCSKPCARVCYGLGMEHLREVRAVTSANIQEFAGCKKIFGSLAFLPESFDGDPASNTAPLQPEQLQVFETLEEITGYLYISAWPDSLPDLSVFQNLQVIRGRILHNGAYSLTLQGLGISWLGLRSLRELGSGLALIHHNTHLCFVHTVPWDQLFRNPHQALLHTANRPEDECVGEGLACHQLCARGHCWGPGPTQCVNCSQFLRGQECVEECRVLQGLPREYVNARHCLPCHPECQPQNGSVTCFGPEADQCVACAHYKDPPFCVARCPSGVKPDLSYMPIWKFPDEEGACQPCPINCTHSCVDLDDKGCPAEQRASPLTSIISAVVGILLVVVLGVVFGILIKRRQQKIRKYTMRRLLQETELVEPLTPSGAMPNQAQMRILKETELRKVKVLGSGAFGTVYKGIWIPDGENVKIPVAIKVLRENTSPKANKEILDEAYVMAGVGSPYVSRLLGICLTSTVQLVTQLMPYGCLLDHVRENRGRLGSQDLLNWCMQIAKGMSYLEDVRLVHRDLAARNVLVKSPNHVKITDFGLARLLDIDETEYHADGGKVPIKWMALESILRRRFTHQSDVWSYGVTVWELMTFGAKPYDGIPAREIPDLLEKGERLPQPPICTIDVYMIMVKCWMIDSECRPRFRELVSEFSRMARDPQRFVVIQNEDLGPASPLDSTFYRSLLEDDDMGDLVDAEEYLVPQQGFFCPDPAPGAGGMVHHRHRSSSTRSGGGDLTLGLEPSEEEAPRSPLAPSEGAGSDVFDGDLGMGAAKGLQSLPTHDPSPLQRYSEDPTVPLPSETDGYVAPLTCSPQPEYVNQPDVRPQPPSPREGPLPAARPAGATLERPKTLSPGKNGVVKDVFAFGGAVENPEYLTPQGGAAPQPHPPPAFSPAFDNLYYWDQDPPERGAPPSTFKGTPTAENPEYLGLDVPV
Assay: In vitro protein kinase inhibition assay (ELISA kit), HER2
Details: read-out: Inhibition (%) Her2, 1 µM; individual Data 1-3
inhibition at 1 µM values by entry

Worked cases, answers included:
molecule	inhibition at 1 µM
COc1cccc(C(=O)/C=C/c2ccc(OCc3ccccc3)cc2)c1	68.9%
O=C(/C=C/c1ccccc1)c1ccccc1 [Compound 4a, (E)-Chalcone]	62.2%
O=C(/C=C/c1ccc(O)cc1)c1ccccc1	73%

Input COc1ccc(C(=O)/C=C/c2ccc(OCc3ccccc3)c(OC)c2)cc1 . Output inhibition at 1 µM: 48.9%

---

Biological target: aromatase (CYP19A, EC 1.14.14.14) (Homo sapiens, UniProt P11511)
Construct: Microsomal samples were isolated from tissue using the Microsome Isolation Kit; tissue BioVision K983-100; host or cells: microsomes from an unnamed tissue
Sequence (P11511 whole entry, species assumed): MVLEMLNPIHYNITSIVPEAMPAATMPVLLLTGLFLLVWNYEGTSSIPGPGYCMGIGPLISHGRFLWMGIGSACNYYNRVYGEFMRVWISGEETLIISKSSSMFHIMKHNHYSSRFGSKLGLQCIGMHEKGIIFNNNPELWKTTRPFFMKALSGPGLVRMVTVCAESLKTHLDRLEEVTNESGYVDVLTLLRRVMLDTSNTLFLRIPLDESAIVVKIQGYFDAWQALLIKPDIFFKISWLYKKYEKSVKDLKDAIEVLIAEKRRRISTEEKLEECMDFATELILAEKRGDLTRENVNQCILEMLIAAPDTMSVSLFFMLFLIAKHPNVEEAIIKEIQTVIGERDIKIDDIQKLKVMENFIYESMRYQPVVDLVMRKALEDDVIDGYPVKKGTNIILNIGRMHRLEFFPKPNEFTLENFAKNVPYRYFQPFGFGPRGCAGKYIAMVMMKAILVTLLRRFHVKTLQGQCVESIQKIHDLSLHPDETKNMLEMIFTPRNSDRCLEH
Experiment: biochemical
Conditions: read-out: Inhibition (%) Aromatase, 0.1 µM; individual Data 1-3
inhibition at 0.1 µM values by entry
Kindly provide the numeric value in % only, without the unit symbol.

Worked cases, answers included:
compound	experimentalTarget	recordedValue
COc1ccc(C(=O)/C=C/c2ccc(OCc3ccccc3)c(OC)c2)cc1	aromatase (CYP19A, EC 1.14.14.14) (Homo sapiens, UniProt P11511)	34
O=C(/C=C/c1ccc(O)cc1)c1ccccc1	aromatase (CYP19A, EC 1.14.14.14) (Homo sapiens, UniProt P11511)	11
COc1cccc(C(=O)/C=C/c2ccc(OCc3ccccc3)cc2)c1	aromatase (CYP19A, EC 1.14.14.14) (Homo sapiens, UniProt P11511)	19

Next up:
Input O=C(/C=C/c1ccccc1)c1ccccc1 [Compound 4a, (E)-Chalcone] . Output inhibition at 0.1 µM: 29

---

inhibition at 10 µM values by entry
Target: CDK2 (Homo sapiens, UniProt P24941)
Assay: In vitro protein kinase inhibition assay (ELISA kit), CDK2
Conditions: read-out: Inhibition (%) CDK2, 10 µM; individual Data 1-3

Worked cases, answers included:
compound	experimentalTarget	measuredMetric	recordedValue
O=C(/C=C/c1ccc(O)cc1)c1ccccc1	CDK2 (Homo sapiens, UniProt P24941)	inhibition at 10 µM	85.4%
COc1cccc(C(=O)/C=C/c2ccc(OCc3ccccc3)cc2)c1	CDK2 (Homo sapiens, UniProt P24941)	inhibition at 10 µM	88.1%
COc1ccc(C(=O)/C=C/c2ccc(OCc3ccccc3)c(OC)c2)cc1	CDK2 (Homo sapiens, UniProt P24941)	inhibition at 10 µM	79.3%

Next up:
Input O=C(/C=C/c1ccccc1)c1ccccc1 [Compound 4a, (E)-Chalcone] . Output inhibition at 10 µM: 74.1%

---

A set of compounds tested on CDK2 (Homo sapiens, UniProt P24941), with measured pIC50:
When answering, recall that pIC50 equals minus log10 of the concentration in mol/L, and write that number alone.

Worked cases, answers included:
compound	pIC50
O=C(/C=C/c1ccccc1)c1ccccc1 [Compound 4a, (E)-Chalcone]	6.08
COc1ccc(C(=O)/C=C/c2ccc(OCc3ccccc3)c(OC)c2)cc1 [Compound 4v]	5.99

Next up:
Input O=C(/C=C/c1ccc(O)cc1)c1ccccc1 [Compound 4b] . Output pIC50: 6.54

---

Target: aromatase (CYP19A, EC 1.14.14.14) (Homo sapiens)
Construct: Microsomal samples were isolated from tissue using the Microsome Isolation Kit; tissue BioVision K983-100; host or cells: microsomes from an unnamed tissue
Assay: biochemical
Settings: read-out: Inhibition (%) Aromatase, 100 µM; individual Data 1-3
inhibition at 100 µM values by entry
Kindly provide the numeric value in % only, without the unit symbol.

Worked cases, answers included:
compound	experimentalTarget	recordedValue
COc1ccc(C(=O)/C=C/c2ccc(OCc3ccccc3)c(OC)c2)cc1 [Compound 4v]	aromatase (CYP19A, EC 1.14.14.14) (Homo sapiens)	95
COc1cccc(C(=O)/C=C/c2ccc(OCc3ccccc3)cc2)c1 [Compound 4q]	aromatase (CYP19A, EC 1.14.14.14) (Homo sapiens)	92
O=C(/C=C/c1ccccc1)c1ccccc1 [Compound 4a, (E)-Chalcone]	aromatase (CYP19A, EC 1.14.14.14) (Homo sapiens)	93

Input O=C(/C=C/c1ccc(O)cc1)c1ccccc1 [Compound 4b] . Output inhibition at 100 µM: 89

---

Biological target: aromatase (CYP19A, EC 1.14.14.14) (Homo sapiens, UniProt P11511)
Construct: Microsomal samples were isolated from tissue using the Microsome Isolation Kit; tissue BioVision K983-100; host or cells: microsomes from an unnamed tissue
Assay: biochemical
Settings: read-out: Inhibition (%) Aromatase, 10 µM; individual Data 1-3
measuredMetric: inhibition at 10 µM (%)
Kindly provide the numeric value in % only, without the unit symbol.

Input COc1ccc(C(=O)/C=C/c2ccc(OCc3ccccc3)c(OC)c2)cc1 . Output inhibition at 10 µM: 85

Input O=C(/C=C/c1ccc(O)cc1)c1ccccc1 . Output inhibition at 10 µM: 75

Input COc1cccc(C(=O)/C=C/c2ccc(OCc3ccccc3)cc2)c1 . Output inhibition at 10 µM: 82

Input O=C(/C=C/c1ccccc1)c1ccccc1 [Compound 4a, (E)-Chalcone] . Output inhibition at 10 µM: 83

---

Target: CDK2 (Homo sapiens, UniProt P24941)
Assay: In vitro protein kinase inhibition assay (ELISA kit), CDK2
Conditions: read-out: Inhibition (%) CDK2, 100 µM; individual Data 1-3
measuredMetric: inhibition at 100 µM (%)
Kindly provide the numeric value in % only, without the unit symbol.

Worked cases, answers included:
compound	recordedValue
O=C(/C=C/c1ccccc1)c1ccccc1 [Compound 4a, (E)-Chalcone]	90.3
COc1cccc(C(=O)/C=C/c2ccc(OCc3ccccc3)cc2)c1	96.3

Input O=C(/C=C/c1ccc(O)cc1)c1ccccc1 . Output inhibition at 100 µM: 94.1

Input COc1ccc(C(=O)/C=C/c2ccc(OCc3ccccc3)c(OC)c2)cc1 . Output inhibition at 100 µM: 92.3

---

Test system: HeLa
Assay: MTT cytotoxicity assay, HeLa
Format: cell-based
Conditions: Homo sapiens, 24 h treatment, mean ± SD of triplicate
measuredMetric: IC50

Worked cases, answers included:
COc1ccccc1/C=C/C(=O)c1ccccc1 42.5 µM
O=C(/C=C/c1ccc(OCc2ccccc2)cc1)c1ccccc1 > 100 µM
COc1cccc(C(=O)/C=C/c2ccc(OCc3ccccc3)c(OC)c2)c1 > 100 µM
O=C(/C=C/c1cccc(OCc2ccccc2)c1)c1ccccc1 25.6 µM
COc1ccc(/C=C/C(=O)c2cccc(OC)c2)cc1 88.8 µM

Input COc1cccc(C(=O)/C=C/c2cccc(OCc3ccccc3)c2)c1 . Output IC50: 45.2 µM

Input O=C(/C=C/c1ccccc1OCc1ccccc1)c1ccccc1 . Output IC50: 36.5 µM

Input COc1cccc(C(=O)/C=C/c2ccc(Cl)cc2)c1 . Output IC50: > 100 µM

Input COc1ccc(C(=O)/C=C/c2ccc(Cl)cc2)cc1 . Output IC50: 74.5 µM

Input COc1cccc(C(=O)/C=C/c2ccc(OCc3ccccc3)cc2)c1 . Output IC50: 22.6 µM

Input O=C(/C=C/c1ccc(O)cc1)c1ccccc1 . Output IC50: 13.1 µM

Input CCOc1ccc(/C=C/C(=O)c2ccccc2)cc1 . Output IC50: 49.6 µM

Input COc1ccc(C(=O)/C=C/c2ccccc2)cc1 . Output IC50: 63.6 µM

Input COc1cccc(C(=O)/C=C/c2ccccc2)c1 . Output IC50: 34.9 µM

Input COc1cc(/C=C/C(=O)c2ccccc2)ccc1OCc1ccccc1 . Output IC50: 59.3 µM

Input COc1cccc(/C=C/C(=O)c2ccccc2)c1 . Output IC50: 39.4 µM

Input COc1ccc(C(=O)/C=C/c2ccc(OCc3ccccc3)c(OC)c2)cc1 . Output IC50: 18.2 µM

Input COc1ccc(C(=O)/C=C/c2ccc(OCc3ccccc3)cc2)cc1 . Output IC50: 87 µM

Input COc1ccc(/C=C/C(=O)c2ccc(OC)cc2)cc1 . Output IC50: > 100 µM

Input COc1ccc(C(=O)/C=C/c2cccc(OCc3ccccc3)c2)cc1 . Output IC50: 57 µM
